system: HCC-2998 colon; assay: NCI tumour cell line growth inhibition, 48 h
endpoint: TGI

Worked examples follow.
CC12CCC(C(=O)N3CC=CCC3)(OC1=O)C2(C)C (stereo unspecified)    > 100 µM
CC/C=C/C(=O)CC(O)(C(F)(F)F)C(F)(F)F    > 100 µM
COC(=O)C12C3C4C5C3(C#N)C1C5(C(=O)OC)C42C(=O)N(C(C)C)C(C)C (stereo unspecified)    > 100 µM
CCCn1c(SCC)c2cc3cc4ccccc4cc3cc2c1-c1nc(F)nc(F)n1    > 100 µM
O=C(Nc1ccc(F)cc1F)c1cc(Br)ccc1O    29.9 µM

Problem: Which TGI is reported for this molecule? CCOC(=O)C1C(c2ccc(OC)cc2)c2c([nH][nH]c2=O)CC1(O)OCC (stereo unspecified)
Result: > 100 µM
